# target_or_test_system: PLK1 (Homo sapiens)
# Sequence (P53350 whole entry): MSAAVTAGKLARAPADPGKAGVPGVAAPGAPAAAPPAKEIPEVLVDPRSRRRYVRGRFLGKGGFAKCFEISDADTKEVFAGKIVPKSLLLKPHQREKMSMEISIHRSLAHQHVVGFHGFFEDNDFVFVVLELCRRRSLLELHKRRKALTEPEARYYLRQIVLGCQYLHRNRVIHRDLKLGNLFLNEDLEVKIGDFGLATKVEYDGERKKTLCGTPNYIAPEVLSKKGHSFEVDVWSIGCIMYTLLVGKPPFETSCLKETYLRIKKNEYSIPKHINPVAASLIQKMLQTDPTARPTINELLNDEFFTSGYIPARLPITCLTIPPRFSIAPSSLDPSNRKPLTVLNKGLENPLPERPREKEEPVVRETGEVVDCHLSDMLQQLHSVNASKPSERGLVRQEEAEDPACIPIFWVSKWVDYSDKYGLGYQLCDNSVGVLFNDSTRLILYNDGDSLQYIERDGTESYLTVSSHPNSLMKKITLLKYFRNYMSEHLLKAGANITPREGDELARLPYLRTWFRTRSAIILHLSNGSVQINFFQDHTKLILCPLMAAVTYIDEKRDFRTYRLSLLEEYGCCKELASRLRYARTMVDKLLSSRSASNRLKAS
# test_details: PLK1 protein kinase assay (CDC25C phosphorylation, [γ-32P]-ATP)
# Format: biochemical
# test_conditions: Table 1; read-out: PLK1 IC50
Overview of recorded IC50 for various compounds

> print(dat)
                                   compound  target.or.test.system  endpoint.label   result
1  CC1CN(C2CCCC2)c2nc(Nc3ccc(C(=O)NC4CCN(C)CC4)cc3)ncc2NC1=O (centres unmarked) [compound 18]    PLK1 (Homo sapiens)            IC50  < 10 µM
2  CC1CN(C2CCCC2)c2nc(Nc3ccc(O)cc3)ncc2NC1=O (centres unmarked) [compound 11]    PLK1 (Homo sapiens)            IC50  < 10 µM
3  CC1CC(=O)Nc2cnc(Nc3ccc(C(=O)NC4CCN(C)CC4)cc3)nc2N1C1CCCC1 (centres unmarked) [compound 38]    PLK1 (Homo sapiens)            IC50   < 1 µM
4  COc1cc(C(=O)NC2CCN(C)CC2)ccc1Nc1ncc2c(n1)N(C1CCCCC1)C(C)CC(=O)N2 (centres unmarked) [compound 35]    PLK1 (Homo sapiens)            IC50   < 1 µM
5  COc1cc(C(=O)O)ccc1Nc1ncc2c(n1)N(C1CCCC1)C(C)CC(=O)N2C (centres unmarked) [compound 4]    PLK1 (Homo sapiens)            IC50  < 10 µM
6  COc1cc(C(=O)O)ccc1Nc1ncc2c(n1)N(C1CCCC1)CCC(=O)N2C [compound 1]    PLK1 (Homo sapiens)            IC50   < 1 µM
7  COc1cc(C(=O)NC2CCN(C)CC2)ccc1Nc1ncc2c(n1)N(Cc1ccccc1)CCC(=O)N2C [compound 29]    PLK1 (Homo sapiens)            IC50  < 10 µM

Could you now consider this next compound?
Q) Return reported IC50; argument: COc1cc(C(=O)O)ccc1Nc1ncc2c(n1)N(C1CCCCC1)C(C)CC(=O)N2 (centres unmarked) [compound 5]
A) < 10 µM
